test system: MS2 coat protein; test: apparent KD of MS2 coat protein; designed switch direction (-1 OFF switch, 1 ON switch): -1; higher = weaker reporter binding; details: input ligand: none
PROPERTY_NAME: apparent KD of MS2 coat protein (nM)
One number for each entry, in nM.

ENTRY_SEQUENCE	ASSAY_TARGET	apparent KD of MS2 coat protein (nM)
CCUCGUUGGGAGGAUAUCCUUUAGAUUGGAGGAGGAGAAGGCUCGACAUGAGGAUCACCCAUGUAAAAUUUAAA [-18.7, -17.5 kcal, A 31%] (Eterna round: R97, puzzle: Exclusion 6)	MS2 coat protein	73.3
ACAAGCUUUUAGUUCGUCUUAUACACUCCUAAUAAGAAAACAUGAGGAUCACCCAUGUAAGAAAUAAGAACUCAUGU [Sesor Array 2 - Jieux - Sensor v3, turn-off variant 2] (Eterna round: R96, puzzle: Sensor v3, turn-off variant 2)	MS2 coat protein	143
ACCUCACAUGAGGAUCACCCAUGUCAGGAUAUCUUUUAUUACAGCAAUCCUGUCGCUGAGAGAAGGGACAUUAA [EX1 #25] (Eterna round: R97, puzzle: Exclusion 1)	MS2 coat protein	28.1
ACAAGCAUUUAGUAAAUGGACAUGAGGAUCACCCAUGUGAGUCCGAAGAGAUAAGAUAUAUUGUCGGCUCGUCUUAU [AK-miRNA-r3-22] (Eterna round: R97, puzzle: Sensor, turn-off variant 1)	MS2 coat protein	94.8
CUUUCGUGAGGAUAUGUGGCUUCGAAAGUGAGAUCGAGGCUACAGAAGGCACAUGAGGAUCACCCAUGUUCCUC [salish99_ex4_r4_214] (Eterna round: R97, puzzle: Exclusion 4)	MS2 coat protein	28.2
GUCCGGCAUGUAGGAUAUGGAUCCGAUUAGGAUUUAGAAGGACAUGAGGAUCACCCAUGUACAUUUAAUUAGUCAUUACCGGAC [EXclNG1-LROPPY03] (Eterna round: R96, puzzle: Exclusion NG 1)	MS2 coat protein	14.9

For every listed record, write down its apparent KD of MS2 coat protein.
1. AAGUACCGGUGAGGAUAUUUAUAAUAGAGCUUUAUGAUAUACAUGAGGAUCACCCAUGUUACUUUAAAGAAGGCAUCGGAUUAA [Mat - Exclusion NG 2 - Mod of JL - D92] (Eterna round: R96, puzzle: Exclusion NG 2)
2. GUUUCACAUGAGGAUCACCCAUGUGAGGAUAUGAAUUUGUUAACCGUAGUUAAUAGAUUCAGAAGGCGCGUGAU [JRxlusion 1- Jieux - Exclusion 1] (Eterna round: R97, puzzle: Exclusion 1)

[reply]
1. 18.1
2. 70.3

[ask] Looking for the measured apparent KD of MS2 coat protein of GCAGAGCAAGGAUAUACAUGAGGAUCACCCAUGUAAUCUGAAAGGAUUGUAUGGCUCUGUAGAAGGUGCGAAAA [Ederxein] (Eterna round: R97, puzzle: Exclusion 3) , can you help?
[reply] 22.7

###

Assignment: determine reported apparent KD of MS2 coat protein for the given sequences.
test system: MS2 coat protein; assay: apparent KD of MS2 coat protein, switch ON state; designed switch direction (-1 OFF switch, 1 ON switch): -1; higher = weaker reporter binding; details: FMN input: 0 or 200 uM; Eterna round: R93 (includes R88 designs)
Numbers only, in nM.

# example entries with known answers
In [3]: df
Out[3]:
                             entry_sequence  numeric_value
0  AAAAGACAUGAGGAUCACCCAUGUGAGGAUAUGACGUAAAGAAAGAAAGAAGAAAUCGUCAGAAGGCACACCUA [Mat - Exclusion 1 - Eli mod - D68]           31.6
1  ACCAGUACAGGAUAUACAUGAGGAUCACCCAUGUGAGAAUUAAGUGGCGUACCACAAAGUAGAAGGGUACUGGA [Mat - Exclusion 3 - JL mod - D11]           43.3
2  AAGAGUACAGGAUAUAUAUGAAAAGAGUCGAAAGACUCAAAACAUGAGGAUCACCCAUGUAGAAGGGUACUCAA [Hyphema Seclusion Mod 62% 1]           36.8
3  AACAAACAUGAGGAUCACCCAUGUAAGGAUAUGCAACAAAAACAAAAAACAAAAAAAAGCAGAAGGUACAACAA [Amethyst 99]           25.6

For every listed record, write down its apparent KD of MS2 coat protein.
1. AUAAUGAGAGGAUAUACAUGAGGAUCACCCAUGUAAUUAAAAAGGAGAGAAACAAUACGUAGAAGGCUCAUUUA [JR_Exc003+Sub601]
2. AAGAAGCUAGGAUAUACAUGAGGAUCACCCAUGUAAAAGAAAGAAAAGGGAAAGAAAAGUAGAAGGAGCAAGAA [Menpehtire Ramesses I]
3. AAAGGACAUGAGGAUCACCCAUGUGAGGAUAUGACGUAAAUAAAGAAAGAAGAAAUCGUCAGAAGGCACACCUA [55%, Disencluded 2, 2]
4. AAAACACAUGAGGAUCACCCAUGUGAGGAUAUGCUAUGGAAAAUAAAAAUAAAACAUAGCAGAAGGCACAAAGG [Denovo 18]
5. AAGAACGCAGGAUAUACUAAAGAAAUGAAAAGAAAUAAAGAACAUGAGGAUCACCCAUGUAGAAGGGCGAAGAA [Merdjefare]
6. CCUGUGUGAGGAUAUGGUGUAAAAAAAAAAAAAUAGCUCCUCCAGAAGGCACAUGAGGAUCACCCAUGUCGUGG [Jolly's Folly 18 - Jieux - Exclusion 4]

[reply]
1: 21.6; 2: 28.7; 3: 40.7; 4: 32.9; 5: 39.4; 6: 32.9

For every listed record, write down its apparent KD of MS2 coat protein.
1. AGAGACAGAGGAUAUACAUGAGGAUCACCCAUGUAAGAGAAAGAAAAGGGAAAGAAAAGUAGAAGGCUGAGAGA [Ruby 67]
2. CUCUUGUCAGGAUAUGAAAGAAAAGAAGAGAAAGAAAAGAAUCAGAAGGGACAUGAGGAUCACCCAUGUAAGAA [EteRNA is fun!]
3. AACAGGUCAGGAUAUGUGUAAAAAAUAAAAAAAAUAUAAACACAGAAGGGACAUGAGGAUCACCCAUGUUAACA [May 26]

[reply]
[24.2, 43.6, 31.5]

###

system: MS2 coat protein; assay: apparent KD of MS2 coat protein; designed switch direction (-1 OFF switch, 1 ON switch): 1; higher = weaker reporter binding; conditions: Eterna round: R95; input ligand: microRNA oligo, concentration not stated
Note that class boundaries on apparent KD of MS2 coat protein are LOW (below 20 nM), MID (20 nM to below 50 nM), HIGH (50 nM or more)

ENTRY_SEQUENCE	QUALITATIVE_LABEL
AACAUUCUAUCUGAGGAUAUCAUGAAAUAAACAUGAGGAUCACCCAUGUGCAGGAAAACUGCAUAUGAGAAGGCAGAUAGAUUGA [salish99_ss2_r3_022] (puzzle: Same State 2)	HIGH
GGAGAACAUGAGGAUCACCCAUGUGAGCGGUAGCUAGGAUAUGCGGGAAGGAAGAGAGAAGCAGAAGGAGUCGGUA [JR_SS1_Sub033] (puzzle: Same State 1)	MID
CAGUGCUGUUGAGAGGAUAUGCGGCGACGGACAUGAGGAUCACCCAUGUUAGCGACAGCGUUGCGGCAGAAGGCUCUGCCCGCUA [Soteed Omei mod 51] (puzzle: Same State 2)	MID
CGGCGCUGUUGAGAGGAUAUGCGGUGAUGGACAUGAGGAUCACCCAUGUUAGCGAUAGCAUUACGGUAGAAGGCUCUACAGCUGU [Soteed Omei mod 11] (puzzle: Same State 2)	MID
UCUUGGUUUUUGCUCGUUUUUUGUGUUGAACAUGAGGAUCACCCAUGUAUUGUACGGUCCAAUUUAAUAGUGGUCCG [JMF 24] (puzzle: Sensor for hsa-mir-208a)	LOW
UCUUGGUUUUUGCUCGUUUUUUGUGUUGAACAUGAGGAUCACCCAUGUAUUGUACGGUCCGGUUUGAUAGUGGUCCG [JMF 15] (puzzle: Sensor for hsa-mir-208a)	LOW
UUUAGUUGCGGGCAGGAUAUGUAUUAAAAUACAUGAGGAUCACCCAUGUGGGACCGAAAAGGUCUACAGAAGGGCCAAUCGCGAC [Laonerce - 21] (puzzle: Same State 2)	HIGH
CAGCACUAUCGAGAGGAUAUGCGGUGAUGGACAUGAGGAUCACCCAUGUUAGCGAUGGCAUCACGGCAGAAGGCUCUGCUGCUGC [Soteed Omei mod 38] (puzzle: Same State 2)	LOW

[ask] Which apparent KD of MS2 coat protein band matches AAUUAUUAACAUGAGGAUCACCCAUGUAUUAUUAUUAACAAGCUUUGCUCUACAUGGGUGCUCGUCUUAUUUAUUAA [AthenaIerokomos] (puzzle: Sensor for hsa-mir-208a version 2) ?
[reply] HIGH

[ask] Continue with GGAGCCUGCACUGAGGAUAUUCAUAGUGUAACAUGAGGAUCACCCAUGUGUCGCCGUAGCGACUGGGAGAAGGCAGUGCGGCUCG [JL-ss2-3.06 ViennaUCT mod] (puzzle: Same State 2)
[reply] HIGH

The reported numbers originate from the supplement of paper PMC9170038.
